# TARGET ENTITY: Protein-lysine 6-oxidase (Homo sapiens)
# Sequence (P28300 whole entry): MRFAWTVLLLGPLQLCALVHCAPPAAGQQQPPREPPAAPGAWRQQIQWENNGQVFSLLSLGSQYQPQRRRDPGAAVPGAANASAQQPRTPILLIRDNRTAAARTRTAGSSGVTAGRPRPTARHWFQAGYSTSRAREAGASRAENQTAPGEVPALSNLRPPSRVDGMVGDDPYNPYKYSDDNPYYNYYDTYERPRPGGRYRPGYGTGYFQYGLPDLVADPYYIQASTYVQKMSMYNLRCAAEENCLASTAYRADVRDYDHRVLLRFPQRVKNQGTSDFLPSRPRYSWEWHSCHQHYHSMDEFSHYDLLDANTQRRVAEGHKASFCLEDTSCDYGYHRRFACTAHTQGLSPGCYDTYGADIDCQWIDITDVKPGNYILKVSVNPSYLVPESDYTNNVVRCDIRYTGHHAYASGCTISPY
# TEST DESCRIPTION: Inhibition of recombinant human LOX expressed in HEK293 cells using diaminopentane as substrate preincubated for 30 mins followed by substrate addition measured after 1 hr by fluorimetric method
MEASUREMENT KIND: IC50

*Q* Quick check: IC50 of N#CCCN ?
*A* > 100 µM

*Q* Quick check: IC50 of O=c1c2ccc(-c3cccs3)nc2[nH]n1-c1ccccc1 ?
*A* > 100 µM

*Q* Quick check: IC50 of O=c1c2cccnc2[nH]c(=S)n1-c1ccccc1 ?
*A* > 100 µM
